System: Candida albicans
TEST: Antifungal activity against Candida albicans MTCC 3017 at 0.5 mg/mL after 72 hrs by agar-well diffusion method
Format: functional
EXPERIMENTAL CONDITIONS: MTCC 3017, 72 h, read-out: DIZ

COMPOUND: COC(=O)C1=C(C)NC(C)=C(C(=O)OC)C1c1c[nH]nc1-c1cc(Cl)sc1Cl
TARGET OF ASSAY: Candida albicans
zone of inhibition at 500 µg/mL (mm): 2
--
COMPOUND: COC(=O)C1=C(C)NC(C)=C(C(=O)OC)C1c1c[nH]nc1-c1ccc(OC)cc1
TARGET OF ASSAY: Candida albicans
zone of inhibition at 500 µg/mL (mm): 0
--
COMPOUND: COC(=O)C1=C(C)NC(C)=C(C(=O)OC)C1c1c[nH]nc1-c1ccc(-c2ccccc2)cc1
TARGET OF ASSAY: Candida albicans
zone of inhibition at 500 µg/mL (mm): 0
--
COMPOUND: COC(=O)C1=C(C)NC(C)=C(C(=O)OC)C1c1c[nH]nc1-c1ccc(Cl)cc1Cl
TARGET OF ASSAY: Candida albicans
zone of inhibition at 500 µg/mL (mm): 0
--
COMPOUND: CCOC(=O)C1=C(C)NC(C)=C(C(=O)OCC)C1c1c[nH]nc1-c1ccc(SC)cc1
TARGET OF ASSAY: Candida albicans
zone of inhibition at 500 µg/mL (mm): 0
--
COMPOUND: COC(=O)C1=C(C)NC(C)=C(C(=O)OC)C1c1c[nH]nc1-c1ccc(SC)cc1
TARGET OF ASSAY: Candida albicans
zone of inhibition at 500 µg/mL (mm): 0
--
COMPOUND: OC(Cn1cncn1)(Cn1cncn1)c1ccc(F)cc1F [FLUCONAZOLE]
TARGET OF ASSAY: Candida albicans
zone of inhibition at 500 µg/mL (mm): 21
--
COMPOUND: CCOC(=O)C1=C(C)NC(C)=C(C(=O)OCC)C1c1c[nH]nc1-c1cc(Cl)sc1Cl
TARGET OF ASSAY: Candida albicans
zone of inhibition at 500 µg/mL (mm): 2
--
COMPOUND: CCOC(=O)C1=C(C)NC(C)=C(C(=O)OCC)C1c1c[nH]nc1-c1ccc(-c2ccccc2)cc1
TARGET OF ASSAY: Candida albicans
zone of inhibition at 500 µg/mL (mm): 4

---

Tested on: Radical scavenging activity
TEST: Antioxidant activity assessed as DPPH free radical scavenging activity at 100 uM after 30 mins
Type: functional
# Activity annotations

COMPOUND: CCOC(=O)C1=C(C)NC(C)=C(C(=O)OCC)C1c1c[nH]nc1-c1ccc(SC)cc1
TARGET OF ASSAY: Radical scavenging activity
Activity: 61.1%
//
COMPOUND: CCOC(=O)C1=C(C)NC(C)=C(C(=O)OCC)C1c1c[nH]nc1-c1ccc(Cl)cc1
TARGET OF ASSAY: Radical scavenging activity
Activity: 62.3%
//
COMPOUND: COC(=O)C1=C(C)NC(C)=C(C(=O)OC)C1c1c[nH]nc1-c1ccc(SC)cc1
TARGET OF ASSAY: Radical scavenging activity
Activity: 32.2%
//
COMPOUND: CCOC(=O)C1=C(C)NC(C)=C(C(=O)OCC)C1c1c[nH]nc1-c1cc(Cl)sc1Cl
TARGET OF ASSAY: Radical scavenging activity
Activity: 32%
//
COMPOUND: COC(=O)C1=C(C)NC(C)=C(C(=O)OC)C1c1c[nH]nc1-c1ccc(-c2ccccc2)cc1
TARGET OF ASSAY: Radical scavenging activity
Activity: 25.3%
//
COMPOUND: COC(=O)C1=C(C)NC(C)=C(C(=O)OC)C1c1c[nH]nc1-c1ccc(OC)cc1
TARGET OF ASSAY: Radical scavenging activity
Activity: 30.2%
//
COMPOUND: COC(=O)C1=C(C)NC(C)=C(C(=O)OC)C1c1c[nH]nc1-c1ccc(Cl)cc1Cl
TARGET OF ASSAY: Radical scavenging activity
Activity: 35.2%
//
COMPOUND: Cc1cc(C(C)(C)C)c(O)c(C(C)(C)C)c1
TARGET OF ASSAY: Radical scavenging activity
Activity: 72.4%
//
COMPOUND: COC(=O)C1=C(C)NC(C)=C(C(=O)OC)C1c1c[nH]nc1-c1cc(Cl)sc1Cl
TARGET OF ASSAY: Radical scavenging activity
Activity: 30.3%
//
COMPOUND: CCOC(=O)C1=C(C)NC(C)=C(C(=O)OCC)C1c1c[nH]nc1-c1ccc(OC)cc1
TARGET OF ASSAY: Radical scavenging activity
Activity: 30.3%
//
COMPOUND: CCOC(=O)C1=C(C)NC(C)=C(C(=O)OCC)C1c1c[nH]nc1-c1ccc(-c2ccccc2)cc1
TARGET OF ASSAY: Radical scavenging activity
Activity: 65.3%
//
COMPOUND: COC(=O)C1=C(C)NC(C)=C(C(=O)OC)C1c1c[nH]nc1-c1ccc(Cl)cc1
TARGET OF ASSAY: Radical scavenging activity
Activity: 29.4%
//
COMPOUND: CCOC(=O)C1=C(C)NC(C)=C(C(=O)OCC)C1c1c[nH]nc1-c1ccc(Cl)cc1Cl
TARGET OF ASSAY: Radical scavenging activity
Activity: 29.2%

---

System: Escherichia coli
TEST: Antibacterial activity against Escherichia coli ATCC 25922 at 1 mg/mL after 24 hrs by agar-well diffusion method
Assay type: functional
EXPERIMENTAL CONDITIONS: ATCC 25922, 24 h, read-out: IZ
PARAMETER: zone of inhibition at 1000 µg/mL (mm)

COMPOUND: COC(=O)C1=C(C)NC(C)=C(C(=O)OC)C1c1c[nH]nc1-c1ccc(Cl)cc1
VALUE UNITS: mm
REPORTED MEASUREMENT: 10

COMPOUND: COC(=O)C1=C(C)NC(C)=C(C(=O)OC)C1c1c[nH]nc1-c1ccc(SC)cc1
VALUE UNITS: mm
REPORTED MEASUREMENT: 4

COMPOUND: COC(=O)C1=C(C)NC(C)=C(C(=O)OC)C1c1c[nH]nc1-c1cc(Cl)sc1Cl
VALUE UNITS: mm
REPORTED MEASUREMENT: 10

COMPOUND: CCOC(=O)C1=C(C)NC(C)=C(C(=O)OCC)C1c1c[nH]nc1-c1ccc(SC)cc1
VALUE UNITS: mm
REPORTED MEASUREMENT: 17

---

# inhibition zone (IZ) annotations
TEST: Antifungal activity against Chrysosporium keratinophilum MTCC 2827 at 0.25 mg/mL after 72 hrs by agar-well diffusion method
Assay type: functional

COMPOUND: CCOC(=O)C1=C(C)NC(C)=C(C(=O)OCC)C1c1c[nH]nc1-c1ccc(SC)cc1
VALUE UNITS: mm
inhibition zone (IZ): 0
//
COMPOUND: CCOC(=O)C1=C(C)NC(C)=C(C(=O)OCC)C1c1c[nH]nc1-c1cc(Cl)sc1Cl
VALUE UNITS: mm
inhibition zone (IZ): 2
//
COMPOUND: COC(=O)C1=C(C)NC(C)=C(C(=O)OC)C1c1c[nH]nc1-c1ccc(Cl)cc1Cl
VALUE UNITS: mm
inhibition zone (IZ): 0
//
COMPOUND: COC(=O)C1=C(C)NC(C)=C(C(=O)OC)C1c1c[nH]nc1-c1ccc(Cl)cc1
VALUE UNITS: mm
inhibition zone (IZ): 2
//
COMPOUND: CCOC(=O)C1=C(C)NC(C)=C(C(=O)OCC)C1c1c[nH]nc1-c1ccc(Cl)cc1Cl
VALUE UNITS: mm
inhibition zone (IZ): 1
//
COMPOUND: COC(=O)C1=C(C)NC(C)=C(C(=O)OC)C1c1c[nH]nc1-c1ccc(-c2ccccc2)cc1
VALUE UNITS: mm
inhibition zone (IZ): 0
//
COMPOUND: CCOC(=O)C1=C(C)NC(C)=C(C(=O)OCC)C1c1c[nH]nc1-c1ccc(OC)cc1
VALUE UNITS: mm
inhibition zone (IZ): 0
//
COMPOUND: CCOC(=O)C1=C(C)NC(C)=C(C(=O)OCC)C1c1c[nH]nc1-c1ccc(Cl)cc1
VALUE UNITS: mm
inhibition zone (IZ): 0
//
COMPOUND: COC(=O)C1=C(C)NC(C)=C(C(=O)OC)C1c1c[nH]nc1-c1ccc(SC)cc1
VALUE UNITS: mm
inhibition zone (IZ): 0

---

Tested on: Escherichia coli
TEST: Antibacterial activity against Escherichia coli ATCC 25922 at 1 mg/mL after 24 hrs by agar-well diffusion method
Assay type: functional
EXPERIMENTAL CONDITIONS: ATCC 25922, 24 h, read-out: IZ
# zone of inhibition at 1000 µg/mL annotations
PARAMETER: zone of inhibition at 1000 µg/mL (mm)

COMPOUND: CCOC(=O)C1=C(C)NC(C)=C(C(=O)OCC)C1c1c[nH]nc1-c1ccc(Cl)cc1Cl
PARAMETER: zone of inhibition at 1000 µg/mL
REPORTED MEASUREMENT: 6
--
COMPOUND: COC(=O)C1=C(C)NC(C)=C(C(=O)OC)C1c1c[nH]nc1-c1ccc(Cl)cc1Cl
PARAMETER: zone of inhibition at 1000 µg/mL
REPORTED MEASUREMENT: 6
--
COMPOUND: COC(=O)C1=C(C)NC(C)=C(C(=O)OC)C1c1c[nH]nc1-c1ccc(-c2ccccc2)cc1
PARAMETER: zone of inhibition at 1000 µg/mL
REPORTED MEASUREMENT: 13
--
COMPOUND: COC(=O)C1=C(C)NC(C)=C(C(=O)OC)C1c1c[nH]nc1-c1ccc(OC)cc1
PARAMETER: zone of inhibition at 1000 µg/mL
REPORTED MEASUREMENT: 7
--
COMPOUND: CCOC(=O)C1=C(C)NC(C)=C(C(=O)OCC)C1c1c[nH]nc1-c1cc(Cl)sc1Cl
PARAMETER: zone of inhibition at 1000 µg/mL
REPORTED MEASUREMENT: 16
